Provide the reported ORYSAT herbicidal rating (rice tolerance) of each item.
- System: Oryza sativa, (L.) Tebonnet
- method_notes: Rice tolerance to post-transplant applications under flooded paddy conditions (Example 187), ORYSAT (Rice, Tebonnet)
- protocol_conditions: 0.0320 kg/ha, rated three to four weeks after treatment
Numbers only.

// known answers, use as guide
• C=CCOc1c(I)cc(C)cc1-c1nsc2ccc(-n3c(=O)cc(C(F)(F)F)n(C)c3=O)cc12 = 4.0
• Cn1c(C(F)(F)F)cc(=O)n(-c2ccc3snc(C(C)(C)C(=O)OCc4ccco4)c3c2)c1=O = 2.0

Okay, now this compound:
Give the measured ORYSAT herbicidal rating (rice tolerance) for Cc1ccc(OC(C)(C)C(=O)O)c(-c2nsc3ccc(-n4c(=O)cc(C(F)(F)F)n(C)c4=O)cc23)c1
0.0
